Measured On: human CB1 receptors (Homo sapiens (Human), UniProt P21554)
Sequence (P21554 whole entry): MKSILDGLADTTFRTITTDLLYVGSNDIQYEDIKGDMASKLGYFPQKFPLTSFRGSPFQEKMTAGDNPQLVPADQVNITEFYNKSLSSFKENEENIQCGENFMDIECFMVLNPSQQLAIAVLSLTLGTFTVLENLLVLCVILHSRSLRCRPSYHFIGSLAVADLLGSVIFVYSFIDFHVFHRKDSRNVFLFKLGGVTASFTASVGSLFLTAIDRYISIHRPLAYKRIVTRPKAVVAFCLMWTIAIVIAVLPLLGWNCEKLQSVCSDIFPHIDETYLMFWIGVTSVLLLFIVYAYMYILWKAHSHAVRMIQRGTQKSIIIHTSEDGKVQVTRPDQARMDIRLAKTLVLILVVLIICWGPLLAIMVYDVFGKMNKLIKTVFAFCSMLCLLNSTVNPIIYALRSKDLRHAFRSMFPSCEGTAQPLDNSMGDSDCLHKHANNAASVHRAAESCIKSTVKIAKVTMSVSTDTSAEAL
Assay: cAMP assay, CHO cells expressing human CB1 receptors
Type: cell-based
Condition Notes: CHO cells expressing human CB1, cAMP; read-out: human CB1 EC50
pEC50: −log10 of the molar value.
Observed Property: pEC50

QUERY: Record request: pEC50 value, item Cc1cnc(C(C)(C)NC(=O)c2ccc(C3CC3)c(OCC3CC3)n2)s1
RESULT: < 5.00

QUERY: Record request: pEC50 value, item NC(=O)[C@H](CC1CC1)NC(=O)c1ccc(Br)c(OCC2CC2)n1
RESULT: < 5.00

QUERY: Record request: pEC50 value, item CC(C)C[C@H](NC(=O)c1ccc(C2CCCO2)c(OCC2CC2)n1)C(N)=O (stereo partly drawn)
RESULT: 6.02

QUERY: Record request: pEC50 value, item CC(C)C[C@H](NC(=O)c1ccc(NC2CC2)c(OCC2CC2)n1)C(N)=O
RESULT: 6.82

QUERY: Record request: pEC50 value, item CC(C)C[C@H](NC(=O)c1ccc(C2CC2)c(Cc2ccc(F)cc2)n1)C(N)=O
RESULT: 6.91

QUERY: Record request: pEC50 value, item CC(C)(NC(=O)c1ccc(C2CCOCC2)c(OCC2CC2)n1)c1nccs1
RESULT: < 5.00

QUERY: Record request: pEC50 value, item CC(C)C[C@H](NC(=O)c1ccc(N2CC(F)(F)C2)c(OCC2CC2)n1)c1cccnn1
RESULT: < 5.00

QUERY: Record request: pEC50 value, item CC(C)(C)NC(=O)c1ccc(N2CC(F)(F)C2)c(OCC2CC2)n1
RESULT: < 5.00

QUERY: Record request: pEC50 value, item O=C(NN1CCCCC1)c1ccc(Cl)c(-c2cccc(Cl)c2)n1
RESULT: < 5.00

QUERY: Record request: pEC50 value, item CC(C)C[C@H](NC(=O)c1ccc(C2CC2)c(OCC2CC2)n1)C(=O)OC(C)(C)C
RESULT: < 5.00

QUERY: Record request: pEC50 value, item NC(=O)[C@@H](NC(=O)c1ccc(C2CC2)c(OCC2CC2)n1)C1CC1
RESULT: < 5.00

QUERY: Record request: pEC50 value, item NC(=O)[C@H](CC1CC1)NC(=O)c1ccc(NC2CC2)c(OCC2CC2)n1
RESULT: < 5.00

QUERY: Record request: pEC50 value, item CC(C)(C)NC(=O)c1ccc(C2CC2)c(OCC2CCCO2)n1 (stereo not drawn)
RESULT: < 5.00

QUERY: Record request: pEC50 value, item CS(=O)(=O)CC[C@H](NC(=O)c1ccc(N2CC(F)(F)C2)c(OCC2CC2)n1)C(N)=O
RESULT: < 5.00

QUERY: Record request: pEC50 value, item CCC(CC)(NC(=O)c1ccc(Cl)c(OCC2CC2)n1)C(=O)NC
RESULT: < 5.00

QUERY: Record request: pEC50 value, item NC(=O)[C@H](CC1CC1)NC(=O)c1ccc(C2CC2)c(OCC2CC2)n1
RESULT: < 5.00

QUERY: Record request: pEC50 value, item CNC(=O)[C@@H](NC(=O)c1ccc(C2CC2)c(OCC2CC2)n1)c1ccccc1
RESULT: < 5.00

QUERY: Record request: pEC50 value, item CCC(CC)(CO)NC(=O)c1cccc(-c2cccc(Cl)c2)n1
RESULT: < 5.00
